Reported values of Median dimer activity (recombination on loxP) for individual entries
- MEASURED ON: T1, Cre recombinase monomer with Q311R mutation
- T1 chain: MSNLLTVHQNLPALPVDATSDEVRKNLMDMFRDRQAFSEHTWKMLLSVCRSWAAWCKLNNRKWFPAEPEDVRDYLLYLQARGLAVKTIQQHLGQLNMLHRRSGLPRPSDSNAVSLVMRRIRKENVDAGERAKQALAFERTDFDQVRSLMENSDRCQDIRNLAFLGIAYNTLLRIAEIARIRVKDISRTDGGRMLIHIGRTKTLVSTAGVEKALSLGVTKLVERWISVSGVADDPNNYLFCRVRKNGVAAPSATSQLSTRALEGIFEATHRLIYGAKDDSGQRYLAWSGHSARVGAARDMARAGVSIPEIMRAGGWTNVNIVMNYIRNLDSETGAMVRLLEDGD
Number in %, nothing else.

The examples below pair each entry with its known result.
Cre recombinase monomer with R292E mutation (protein) MSNLLTVHQNLPALPVDATSDEVRKNLMDMFRDRQAFSEHTWKMLLSVCRSWAAWCKLNNRKWFPAEPEDVRDYLLYLQARGLAVKTIQQHLGQLNMLHRRSGLPRPSDSNAVSLVMRRIRKENVDAGERAKQALAFERTDFDQVRSLMENSDRCQDIRNLAFLGIAYNTLLRIAEIARIRVKDISRTDGGRMLIHIGRTKTLVSTAGVEKALSLGVTKLVERWISVSGVADDPNNYLFCRVRKNGVAAPSATSQLSTRALEGIFEATHRLIYGAKDDSGQRYLAWSGHSAEVGAARDMARAGVSIPEIMQAGGWTNVNIVMNYIRNLDSETGAMVRLLEDGD :: 50
Cre recombinase monomer with K201S mutation (protein) MSNLLTVHQNLPALPVDATSDEVRKNLMDMFRDRQAFSEHTWKMLLSVCRSWAAWCKLNNRKWFPAEPEDVRDYLLYLQARGLAVKTIQQHLGQLNMLHRRSGLPRPSDSNAVSLVMRRIRKENVDAGERAKQALAFERTDFDQVRSLMENSDRCQDIRNLAFLGIAYNTLLRIAEIARIRVKDISRTDGGRMLIHIGRTSTLVSTAGVEKALSLGVTKLVERWISVSGVADDPNNYLFCRVRKNGVAAPSATSQLSTRALEGIFEATHRLIYGAKDDSGQRYLAWSGHSARVGAARDMARAGVSIPEIMQAGGWTNVNIVMNYIRNLDSETGAMVRLLEDGD :: 95
Cre recombinase monomer with H289K mutation (protein) MSNLLTVHQNLPALPVDATSDEVRKNLMDMFRDRQAFSEHTWKMLLSVCRSWAAWCKLNNRKWFPAEPEDVRDYLLYLQARGLAVKTIQQHLGQLNMLHRRSGLPRPSDSNAVSLVMRRIRKENVDAGERAKQALAFERTDFDQVRSLMENSDRCQDIRNLAFLGIAYNTLLRIAEIARIRVKDISRTDGGRMLIHIGRTKTLVSTAGVEKALSLGVTKLVERWISVSGVADDPNNYLFCRVRKNGVAAPSATSQLSTRALEGIFEATHRLIYGAKDDSGQRYLAWSGKSARVGAARDMARAGVSIPEIMQAGGWTNVNIVMNYIRNLDSETGAMVRLLEDGD :: 95
Cre recombinase monomer with R292F mutation (protein) MSNLLTVHQNLPALPVDATSDEVRKNLMDMFRDRQAFSEHTWKMLLSVCRSWAAWCKLNNRKWFPAEPEDVRDYLLYLQARGLAVKTIQQHLGQLNMLHRRSGLPRPSDSNAVSLVMRRIRKENVDAGERAKQALAFERTDFDQVRSLMENSDRCQDIRNLAFLGIAYNTLLRIAEIARIRVKDISRTDGGRMLIHIGRTKTLVSTAGVEKALSLGVTKLVERWISVSGVADDPNNYLFCRVRKNGVAAPSATSQLSTRALEGIFEATHRLIYGAKDDSGQRYLAWSGHSAFVGAARDMARAGVSIPEIMQAGGWTNVNIVMNYIRNLDSETGAMVRLLEDGD :: 42
Cre recombinase monomer with R173N mutation (protein) MSNLLTVHQNLPALPVDATSDEVRKNLMDMFRDRQAFSEHTWKMLLSVCRSWAAWCKLNNRKWFPAEPEDVRDYLLYLQARGLAVKTIQQHLGQLNMLHRRSGLPRPSDSNAVSLVMRRIRKENVDAGERAKQALAFERTDFDQVRSLMENSDRCQDIRNLAFLGIAYNTLLNIAEIARIRVKDISRTDGGRMLIHIGRTKTLVSTAGVEKALSLGVTKLVERWISVSGVADDPNNYLFCRVRKNGVAAPSATSQLSTRALEGIFEATHRLIYGAKDDSGQRYLAWSGHSARVGAARDMARAGVSIPEIMQAGGWTNVNIVMNYIRNLDSETGAMVRLLEDGD :: 96

## Input What value of measured Median dimer activity (recombination on loxP) is listed for Cre recombinase monomer with R292V mutation (protein) MSNLLTVHQNLPALPVDATSDEVRKNLMDMFRDRQAFSEHTWKMLLSVCRSWAAWCKLNNRKWFPAEPEDVRDYLLYLQARGLAVKTIQQHLGQLNMLHRRSGLPRPSDSNAVSLVMRRIRKENVDAGERAKQALAFERTDFDQVRSLMENSDRCQDIRNLAFLGIAYNTLLRIAEIARIRVKDISRTDGGRMLIHIGRTKTLVSTAGVEKALSLGVTKLVERWISVSGVADDPNNYLFCRVRKNGVAAPSATSQLSTRALEGIFEATHRLIYGAKDDSGQRYLAWSGHSAVVGAARDMARAGVSIPEIMQAGGWTNVNIVMNYIRNLDSETGAMVRLLEDGD ?
## Output 95

## Input What value of measured Median dimer activity (recombination on loxP) is listed for Cre recombinase monomer with R173C mutation (protein) MSNLLTVHQNLPALPVDATSDEVRKNLMDMFRDRQAFSEHTWKMLLSVCRSWAAWCKLNNRKWFPAEPEDVRDYLLYLQARGLAVKTIQQHLGQLNMLHRRSGLPRPSDSNAVSLVMRRIRKENVDAGERAKQALAFERTDFDQVRSLMENSDRCQDIRNLAFLGIAYNTLLCIAEIARIRVKDISRTDGGRMLIHIGRTKTLVSTAGVEKALSLGVTKLVERWISVSGVADDPNNYLFCRVRKNGVAAPSATSQLSTRALEGIFEATHRLIYGAKDDSGQRYLAWSGHSARVGAARDMARAGVSIPEIMQAGGWTNVNIVMNYIRNLDSETGAMVRLLEDGD ?
## Output 91

## Input What value of measured Median dimer activity (recombination on loxP) is listed for Cre recombinase monomer with R292Q mutation (protein) MSNLLTVHQNLPALPVDATSDEVRKNLMDMFRDRQAFSEHTWKMLLSVCRSWAAWCKLNNRKWFPAEPEDVRDYLLYLQARGLAVKTIQQHLGQLNMLHRRSGLPRPSDSNAVSLVMRRIRKENVDAGERAKQALAFERTDFDQVRSLMENSDRCQDIRNLAFLGIAYNTLLRIAEIARIRVKDISRTDGGRMLIHIGRTKTLVSTAGVEKALSLGVTKLVERWISVSGVADDPNNYLFCRVRKNGVAAPSATSQLSTRALEGIFEATHRLIYGAKDDSGQRYLAWSGHSAQVGAARDMARAGVSIPEIMQAGGWTNVNIVMNYIRNLDSETGAMVRLLEDGD ?
## Output 70

Just for reference, patent US20230183713A1 is where these values come from.
